assay: AUC in Sprague-Dawley rat plasma at 10 mg/kg, po by LC-MS/MS analysis; format: ADME, organism-based; set-up: dose 10 mg/kg, route oral; details: Sprague-Dawley, plasma
# AUC listing for each entry below

So what does the record say about AUC for CCN1CCC(Oc2ccc(C(=O)Nc3ccc(NC(=O)Nc4cc(C(C)(C)C)on4)cc3)nc2)CC1 ?
4800 nM·h

So what does the record say about AUC for CN1C(C)(C)CC(Oc2ccc(C(=O)Nc3ccc(NC(=O)Nc4cc(C(C)(C)C)on4)cc3)nc2)CC1(C)C ?
9100 nM·h

So what does the record say about AUC for CC(C)(C)c1cc(NC(=O)Nc2ccc(NC(=O)c3ccc(OC4CCN(C(C)(C)C)CC4)cn3)cc2)no1 ?
5000 nM·h

So what does the record say about AUC for CC(C)(C)c1cc(NC(=O)Nc2ccc(NC(=O)c3cc(OC4CCNCC4)ccn3)cc2)no1 ?
400 nM·h

So what does the record say about AUC for CC(C)(C)c1cc(NC(=O)Nc2ccc(NC(=O)c3cc4ccccc4cn3)cc2)no1 ?
800 nM·h

So what does the record say about AUC for CC(C)(C)c1cc(NC(=O)Nc2ccc(NC(=O)c3ccc(OC4CCN(C5CC5)CC4)cn3)cc2)no1 ?
9500 nM·h
